Parameter pIC50, tested on MAPK14 (UniProt Q16539), listed per item.
Sequence (Q16539 whole entry, looked up): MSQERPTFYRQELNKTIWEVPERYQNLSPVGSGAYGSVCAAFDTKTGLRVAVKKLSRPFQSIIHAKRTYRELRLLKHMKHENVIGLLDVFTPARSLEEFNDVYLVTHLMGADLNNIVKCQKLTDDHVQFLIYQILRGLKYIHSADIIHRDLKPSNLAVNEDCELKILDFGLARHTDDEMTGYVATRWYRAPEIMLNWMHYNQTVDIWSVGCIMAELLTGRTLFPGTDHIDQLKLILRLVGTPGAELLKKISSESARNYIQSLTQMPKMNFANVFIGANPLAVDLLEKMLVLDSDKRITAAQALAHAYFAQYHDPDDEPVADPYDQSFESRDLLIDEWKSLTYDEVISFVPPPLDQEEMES
Answers are plain numbers, as −log10 of the molar value.

Illustrative cases are given below, each with its answer.
• Cc1ccc(NC(=O)c2ccnc(N3CCOCC3)c2)cc1Nc1ccnc(OC2CCN(C)CC2)n1 = 7.35
• CCCN1CCC(Oc2nccc(Nc3cc(NC(=O)c4ccnc(N5CCOCC5)c4)ccc3C)n2)CC1 = 7.26
• COc1cc2ncnc(Nc3cc(NC(=O)c4cccc(N5CCOCC5)c4)ccc3C)c2cc1OCCN(C)C = 7.46
• COc1cc2ncnc(Nc3cc(NC(=O)c4cccc(N5CCOCC5)c4)ccc3C)c2cc1OCCN1CCCC1 = 7.41
• COc1cc2ncnc(Nc3cc(NC(=O)c4cccc(N5CCOCC5)c4)ccc3C)c2cc1OCCN1CCCCC1 = 7.25
• Cc1ccc(NC(=O)c2ccnc(N3CCOCC3)c2)cc1Nc1cc(NCCCN2CCCN(C)CC2)ncn1 = 5.91

Each of the following entries comes with a recorded value; kindly state pIC50 for each.
1. CCCN1CCC(Oc2nccc(Nc3cc(NC(=O)c4cccc(N5CCOCC5)c4)ccc3C)n2)CC1
2. Cc1ccc(NC(=O)c2ccnc(N3CCOCC3)c2)cc1Nc1ccnc(OCCCN(C)C)n1
3. Cc1ccc(NC(=O)c2ccnc(N3CCOCC3)c2)cc1Nc1ccnc(OCC(C)(C)CN(C)C)n1

Reply:
7.31
7.43
7.10

###

Exercise: state measured IC50 for each of the compounds provided.
# target-or-test-system: MAPK14 (human) (UniProt Q16539)
# Sequence (Q16539 whole entry, looked up): as above
# test-name: Inhibition of LPS-Stimulated TNF-alpha Production in Human Whole Blood

• C=CCN(C)c1nccc(Nc2cc(NC(=O)c3ccnc(N4CCOCC4)c3)ccc2C)n1 = > 50 µM
• Cc1ccc(NC(=O)c2ccnc(N3CCOCC3)c2)cc1Nc1cc(NCCCN2CCCC2)ncn1 = > 50 µM
• COc1cc2ncnc(Nc3cc(NC(=O)c4cccc(N5CCOCC5)c4)ccc3C)c2cc1OCCN(C)C = 6.9 µM
• COc1cc2ncnc(Nc3cccc(Cl)c3)c2cc1OC = > 50 µM

Query: Give IC50 (MAPK14 (human) (UniProt Q16539)) of the following compound: `COc1cc2ncnc(Nc3cc(NC(=O)c4ccccc4)ccc3Cl)c2cc1OC`
Reply: > 50 µM

###

# target-or-test-system: MAPK14 (human) (UniProt Q16539)
# test-name: Inhibition of LPS-Stimulated TNF-alpha Production in Human Whole Blood
pIC50: −log10 of the molar value.
Exercise: for every item that follows, state its recorded pIC50.

Please report pIC50 for every entry that follows.
1. COc1cc2ncnc(Nc3ccc(C)c(NC(=O)c4ccccc4)c3)c2cc1OC
2. COc1cc2ncnc(Nc3ccc(Cl)c(NC(=O)c4ccccc4)c3)c2cc1OC
3. COc1cc2ncnc(Nc3cc(NC(=O)c4ccccc4)c(F)cc3F)c2cc1OC

Reply:
["< 4.30", "< 4.30", "< 4.30"]

Below are 2 molecules. Give each one its pIC50.
1. COc1cc2ncnc(Nc3cc(NC(=O)c4cccc(N(C)C)c4)ccc3Cl)c2cc1OC
2. COc1cc2ncnc(Nc3cc(NC(=O)c4ccccc4)c(Cl)cc3F)c2cc1OC

Reply:
1: < 4.30; 2: < 4.30

###

# target-or-test-system: MAPK14 (human) (UniProt Q16539)
# test-name: Inhibition of LPS-Stimulated TNF-alpha Production in Human Whole Blood
Kindly supply the reported IC50 values for the records listed here.

- Cc1ccc(NC(=O)c2ccnc(N3CCOCC3)c2)cc1Nc1cc(NCCCN2CCCN(C)CC2)ncn1: > 50 µM

Provide each entry's IC50 from the list below.
1. Cc1ccc(NC(=O)c2ccnc(N3CCOCC3)c2)cc1Nc1cc(Cl)ncn1
2. COc1cc2ncnc(Nc3cc(NC(=O)c4cccc(N5CCOCC5)c4)ccc3C)c2cc1OCCN(C(C)C)C(C)C
3. Cc1ccc(NC(=O)c2ccnc(N3CCOCC3)c2)cc1Nc1ccnc(NCCCN2CCOCC2)n1
4. COc1cc2ncnc(Nc3cc(NC(=O)c4cccc(N5CCOCC5)c4)ccc3C)c2cc1OCCN1CCCCC1
5. COc1cc2ncnc(Nc3cccc(NC(=O)c4ccccc4)c3)c2cc1OC
6. COc1cc2ncnc(Nc3cccc(NC(=O)c4ccccc4)c3F)c2cc1OC
7. COc1cc2ncnc(Nc3ccc(Cl)c(NC(=O)c4cccc(N(C)C)c4)c3)c2cc1OC
8. COc1cc2ncnc(Nc3cccc(NC(=O)c4cccc(N(C)C)c4)c3)c2cc1OC

Reply:
1. > 50 µM
2. 3.5 µM
3. > 50 µM
4. 4.6 µM
5. > 50 µM
6. > 50 µM
7. > 50 µM
8. > 50 µM

Query: Recall the recorded IC50 for `COc1cc2ncnc(Nc3cc(NC(=O)c4cccc(N5CCOCC5)c4)ccc3C)c2cc1OCCN1CCOCC1` with MAPK14 (human) (UniProt Q16539) and state it.
Reply: 7.8 µM
